Measurement Notes: in vivo
Experimental Setup: Sprague-Dawley, rat, iv, 1 mg/kg
Vd values for the compounds below.
I only need the number, in L/kg, no unit after it.

Recorded results for 3 compounds are shown here.
Compound Structure: COc1ncc(Nc2ncc(CN3CCN(S(C)(=O)=O)C[C@@H]3C)cc2-c2nc(C)nc(N)n2)cc1F
Assay Value: 3.2
//
Compound Structure: COc1ncc(Nc2ncc(CN3CCN(S(C)(=O)=O)CC3)cc2-c2nc(C)nc(N)n2)cc1F
Assay Value: 3.3
//
Compound Structure: COc1ncc(Nc2ncc([C@@H](C)N3CCN(S(C)(=O)=O)C[C@@H]3C)cc2-c2nc(C)nc(N)n2)cc1F
Assay Value: 4

// below: Vd requested for another compound
Asked: Given the compound `COc1ncc(Nc2ncc(C(C)(C)N3CCN(S(C)(=O)=O)CC3)cc2-c2nc(C)nc(N)n2)cc1F` , what is its reported Vd?
Given back: 3.5

====

bioavailability values for the molecules below.
Measurement Notes: in vivo
Experimental Setup: Sprague-Dawley, rat, po, 2 mg/kg
I only need the number, in %, no unit after it.

Recorded results for 3 molecules are shown here.
Compound Structure: COc1ncc(Nc2ncc([C@@H](C)N3CCN(S(C)(=O)=O)C[C@@H]3C)cc2-c2nc(C)nc(N)n2)cc1F
bioavailability, %: 49
//
Compound Structure: COc1ncc(Nc2ncc(C(C)(C)N3CCN(S(C)(=O)=O)CC3)cc2-c2nc(C)nc(N)n2)cc1F
bioavailability, %: 24
//
Compound Structure: COc1ncc(Nc2ncc(CN3CCN(S(C)(=O)=O)CC3)cc2-c2nc(C)nc(N)n2)cc1F
bioavailability, %: 45

// below: bioavailability requested for another molecule
Asked: Given the molecule `COc1ncc(Nc2ncc(CN3CCN(S(C)(=O)=O)C[C@@H]3C)cc2-c2nc(C)nc(N)n2)cc1F` , what is its reported bioavailability?
Given back: 60

====

microsomal CLint at 0.5 h, 1 µM values for the compounds below.
Measurement Notes: in vitro
Experimental Setup: human, liver microsomes

Recorded results for 2 compounds are shown here.
Compound Structure: Cc1nc(N)nc(-c2cc(CN3CCN(S(C)(=O)=O)CC3)cnc2Nc2ccc(Cl)nc2)n1
microsomal CLint at 0.5 h, 1 µM: < 14 µL/min/mg

Compound Structure: COc1ncc(Nc2ncc([C@@H](C)N3CCN(S(C)(=O)=O)C[C@H]3C)cc2-c2nc(C)nc(N)n2)cc1F
microsomal CLint at 0.5 h, 1 µM: 64 µL/min/mg

Asked: Given the compound `COc1cncc(Nc2ncc(CN3CCN(S(C)(=O)=O)CC3)cc2-c2nc(C)nc(N)n2)c1` , what is its reported microsomal CLint at 0.5 h, 1 µM?
Given back: 14 µL/min/mg

Asked: Another compound: `COc1ncc(Nc2ncc([C@@H](C)N3CCN(S(C)(=O)=O)C[C@@H]3C)cc2-c2nc(C)nc(N)n2)cc1F`
Given back: 67 µL/min/mg

Asked: Another compound: `Cc1ccc(Nc2ncc(CN3CCN(S(C)(=O)=O)CC3)cc2-c2nc(C)nc(N)n2)cn1`
Given back: < 14 µL/min/mg

Asked: Another compound: `COc1ncc(Nc2ncc([C@@H](N3CCN(S(C)(=O)=O)CC3)C(F)(F)F)cc2-c2nc(C)nc(N)n2)cc1F`
Given back: 23 µL/min/mg

====

Measurement Notes: in vivo
Experimental Setup: Sprague-Dawley, rat, plasma, po, 2 mg/kg
AUC values for the compounds below.
I only need the number, in nM·h, no unit after it.

Compound Structure: COc1ncc(Nc2ncc(CN3CCN(S(C)(=O)=O)C[C@@H]3C)cc2-c2nc(C)nc(N)n2)cc1F
AUC / nM·h: 2300
//
Compound Structure: COc1ncc(Nc2ncc([C@@H](C)N3CCN(S(C)(=O)=O)C[C@@H]3C)cc2-c2nc(C)nc(N)n2)cc1F
AUC / nM·h: 1400
//
Compound Structure: COc1ncc(Nc2ncc(C(C)(C)N3CCN(S(C)(=O)=O)CC3)cc2-c2nc(C)nc(N)n2)cc1F
AUC / nM·h: 1300

// below: AUC requested for another compound
Asked: Given the compound `COc1ncc(Nc2ncc(CN3CCN(S(C)(=O)=O)CC3)cc2-c2nc(C)nc(N)n2)cc1F` , what is its reported AUC?
Given back: 950

====

Measurement Notes: in vivo
Experimental Setup: Sprague-Dawley, rat, iv, 1 mg/kg
Readout: MRT (h)
I only need the number, in h, no unit after it.

Compound Structure: COc1ncc(Nc2ncc(CN3CCN(S(C)(=O)=O)CC3)cc2-c2nc(C)nc(N)n2)cc1F
Readout: MRT
Assay Value: 1.7
--
Compound Structure: COc1ncc(Nc2ncc(CN3CCN(S(C)(=O)=O)C[C@@H]3C)cc2-c2nc(C)nc(N)n2)cc1F
Readout: MRT
Assay Value: 3.2
--
Compound Structure: COc1ncc(Nc2ncc([C@@H](C)N3CCN(S(C)(=O)=O)C[C@@H]3C)cc2-c2nc(C)nc(N)n2)cc1F
Readout: MRT
Assay Value: 3.1

// below: MRT requested for another compound
Asked: Given the compound `COc1ncc(Nc2ncc(C(C)(C)N3CCN(S(C)(=O)=O)CC3)cc2-c2nc(C)nc(N)n2)cc1F` , what is its reported MRT?
Given back: 4.9

====

Measurement Notes: in vitro
Experimental Setup: rat, liver microsomes
Readout: microsomal CLint at 0.5 h, 1 µM

Recorded results for 5 molecules are shown here.
Compound Structure: COc1cncc(Nc2ncc(CN3CCN(S(C)(=O)=O)CC3)cc2-c2nc(C)nc(N)n2)c1
Assay Value: 29 µL/min/mg
--
Compound Structure: COc1ncc(Nc2ncc(CN3CCN(S(C)(=O)=O)CC3)cc2-c2nc(C)nc(N)n2)cc1F
Assay Value: 30 µL/min/mg
--
Compound Structure: COc1ncc(Nc2ncc(CN3CCN(S(C)(=O)=O)C[C@H]3C)cc2-c2nc(C)nc(N)n2)cc1F
Assay Value: 120 µL/min/mg
--
Compound Structure: Cc1ccc(Nc2ncc(CN3CCN(S(C)(=O)=O)CC3)cc2-c2nc(C)nc(N)n2)cn1
Assay Value: 22 µL/min/mg
--
Compound Structure: COc1ncc(Nc2ncc([C@H](C)N3CCN(S(C)(=O)=O)C[C@H]3C)cc2-c2nc(C)nc(N)n2)cc1F
Assay Value: 174 µL/min/mg

Asked: Given the molecule `COc1ncc(Nc2ncc([C@H](N3CCN(S(C)(=O)=O)CC3)C(F)(F)F)cc2-c2nc(C)nc(N)n2)cc1F` , what is its reported microsomal CLint at 0.5 h, 1 µM?
Given back: 22 µL/min/mg

Asked: Another molecule: `COc1ncc(Nc2ncc([C@H](C)N3CCN(S(C)(=O)=O)C[C@@H]3C)cc2-c2nc(C)nc(N)n2)cc1F`
Given back: 128 µL/min/mg

====

clearance values for the compounds below.
Measurement Notes: in vivo
Experimental Setup: Sprague-Dawley, rat, iv, 1 mg/kg
I only need the number, in L/h/kg, no unit after it.

Compound Structure: COc1ncc(Nc2ncc(C(C)(C)N3CCN(S(C)(=O)=O)CC3)cc2-c2nc(C)nc(N)n2)cc1F
clearance [L/h/kg]: 0.7
--
Compound Structure: COc1ncc(Nc2ncc(CN3CCN(S(C)(=O)=O)CC3)cc2-c2nc(C)nc(N)n2)cc1F
clearance [L/h/kg]: 2
--
Compound Structure: COc1ncc(Nc2ncc(CN3CCN(S(C)(=O)=O)C[C@@H]3C)cc2-c2nc(C)nc(N)n2)cc1F
clearance [L/h/kg]: 1

Asked: Given the compound `COc1ncc(Nc2ncc([C@@H](C)N3CCN(S(C)(=O)=O)C[C@@H]3C)cc2-c2nc(C)nc(N)n2)cc1F` , what is its reported clearance?
Given back: 1.3

====

Measurement Notes: in vitro
Experimental Setup: human, liver microsomes
Field: label. Allowed values: fulfilled (microsomal CLint at 0.5 h, 1 µM < 30 µL/min/mg) or not fulfilled (microsomal CLint at 0.5 h, 1 µM >= 30 µL/min/mg).

Some solved entries appear below for comparison.
Compound Structure: Cc1nc(N)nc(-c2cc(CN3CCN(S(C)(=O)=O)CC3)cnc2Nc2ccc(C(F)(F)F)nc2)n1
Answer Label: fulfilled
//
Compound Structure: COc1ncc(Nc2ncc(C(C)(C)N3CCN(S(C)(=O)=O)CC3)cc2-c2nc(C)nc(N)n2)cc1F
Answer Label: not fulfilled
//
Compound Structure: COc1ncc(Nc2ncc(CN3CCN(S(C)(=O)=O)C[C@@H]3C)cc2-c2nc(C)nc(N)n2)cc1F
Answer Label: not fulfilled

Asked: # check: microsomal CLint at 0.5 h, 1 µM < 30 µL/min/mg for `COc1ncc(Nc2ncc([C@H](C)N3CCN(S(C)(=O)=O)C[C@H]3C)cc2-c2nc(C)nc(N)n2)cc1F`
Given back: not fulfilled

Asked: Another compound: `COc1ncc(Nc2ncc(CN3CCN(S(C)(=O)=O)CC3)cc2-c2nc(C)nc(N)n2)cn1`
Given back: fulfilled

Asked: Another compound: `Cc1nc(N)nc(-c2cc(CN3CCN(S(C)(=O)=O)CC3)cnc2Nc2cncc(F)c2)n1`
Given back: fulfilled

Asked: Another compound: `COc1ncc(Nc2ncc([C@H](C)N3CCN(S(C)(=O)=O)C[C@@H]3C)cc2-c2nc(C)nc(N)n2)cc1F`
Given back: not fulfilled

Asked: Another compound: `COc1ncc(Nc2ncc(CN3CCN(S(C)(=O)=O)C[C@H]3C)cc2-c2nc(C)nc(N)n2)cc1F`
Given back: fulfilled

Asked: Another compound: `COc1ncc(Nc2ncc(CN3CCN(S(C)(=O)=O)CC3)cc2-c2nc(C)nc(N)n2)cc1F`
Given back: fulfilled

Asked: Another compound: `COc1ncc(Nc2ncc([C@H](N3CCN(S(C)(=O)=O)CC3)C(F)(F)F)cc2-c2nc(C)nc(N)n2)cc1F`
Given back: fulfilled
